Assay: Stability of the compound in blank gastric juice assessed as parent compound remaining at 1 mg/ml measured after 8 hrs by UPLC-MS/MS analysis
Format: ADME
Settings: read-out: Stability
QUANTITY NAME: remaining at 8 h, 1 mg/ml (%)

>>> df
                           substance_smiles  result
0  CCN(C)C(=O)Oc1ccccc1C(=O)/C=C/c1ccc(F)cc1     103
1            O=C(/C=C/c1ccc(F)cc1)c1ccccc1O      97

###

Test: Permeability of the compound at 100 ug/ml incubated for 18 hrs by PAMPA assay
Format: ADME
Conditions: dose 100 µg/ml, read-out: permeability
QUANTITY NAME: Papp at 18 h, 100 ug/ml (×10⁻⁶ cm/s)

                                   compound            quantity_name  unit_abbreviation  result
0  CCN(C)C(=O)Oc1ccccc1C(=O)/C=C/c1ccc(F)cc1  Papp at 18 h, 100 ug/ml         ×10⁻⁶ cm/s    16.8
1            O=C(/C=C/c1ccc(F)cc1)c1ccccc1O  Papp at 18 h, 100 ug/ml         ×10⁻⁶ cm/s    11.5
2  CCn1cc(C(=O)O)c(=O)c2cc(F)c(N3CCNCC3)cc21 [NORFLOXACIN]  Papp at 18 h, 100 ug/ml         ×10⁻⁶ cm/s    0.21
